- Test system: 435261-313-R-J1-PDC tumor spheroid viability;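 further: spheroids exposed to compounds for 7 days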
- TEST_METHOD_NOTES: Anticancer human tumor 435261-313-R-J1-PDC patient-derived colon adenocarcinoma cell line growth inhibition [PI3K]
- CONDITION_SET: second compound 0.01 µM; first compound 10 µM; hits give low values; spheroids with HUVEC and MSC
- Source text: Combinatorial screen of targeted agents with the PI3K inhibitors inavolisib, alpelisib, duvelisib, and copanlisib in multi-cell type tumor spheroids A high-throughput screen of multi-cell type tumor spheroids was designed to identify active combinations of targeted small molecules and PI3K pathway inhibitors. […] Compounds. […] If the clinical Cmax for an agent had not been determined, the highest concentration tested was 10 microM. […]
So I've got a bunch of compounds here, and I need their viability, T/C values.
Express the result in % but write the number alone.

Entry C[C@@H](NC(=O)c1ncnc(N)c1Cl)c1ncc(C(=O)Nc2cc(C(F)(F)F)c(Cl)cn2)s1 + CC(Nc1ccc2c(c1)OCCn1cc(N3C(=O)OCC3C(F)F)nc1-2)C(N)=O has what viability, T/C?
108

Entry Cn1ncc(Cl)c1-c1cc(C(=O)NC(CN)Cc2cccc(F)c2)sc1Cl (stereo unspecified) + CC(Nc1ccc2c(c1)OCCn1cc(N3C(=O)OCC3C(F)F)nc1-2)C(N)=O has what viability, T/C?
6.44

Entry CC1(C)CCC(Nc2ncc(C(F)(F)F)c(-c3c[nH]c4c(P(C)(C)=O)c(C#N)ccc34)n2)CN1 (stereo unspecified) + CC(Nc1ccc2c(c1)OCCn1cc(N3C(=O)OCC3C(F)F)nc1-2)C(N)=O has what viability, T/C?
0.98

Entry C#Cc1c(F)ccc2cc(O)cc(-c3ncc4c(N5CC6CCC(C5)N6)nc(OCC56CCCN5CC(F)C6)nc4c3F)c12 (stereo unspecified) + CC(Nc1ccc2c(c1)OCCn1cc(N3C(=O)OCC3C(F)F)nc1-2)C(N)=O has what viability, T/C?
28.8

Entry CC1(C)CCC(Nc2ncc(C(F)(F)F)c(-c3c[nH]c4c(P(C)(C)=O)c(C#N)ccc34)n2)CN1 (stereo unspecified) + COc1c(OCCCN2CCOCC2)ccc2c3n(c(=NC(=O)c4cnc(N)nc4)nc12)CCN3 has what viability, T/C?
0.48

Entry CC(C)NCC(C(=O)N1CCN(c2ncnc3c2C(C)CC3O)CC1)c1ccc(Cl)cc1 (stereo unspecified) + COc1c(OCCCN2CCOCC2)ccc2c3n(c(=NC(=O)c4cnc(N)nc4)nc12)CCN3 has what viability, T/C?
22.3

Entry CNC(=O)c1ccc(N2C(=S)N(c3ccc(C#N)c(C(F)(F)F)c3)C(=O)C2(C)C)cc1F + CC(Nc1ccc2c(c1)OCCn1cc(N3C(=O)OCC3C(F)F)nc1-2)C(N)=O has what viability, T/C?
123

Entry C=CC(=O)N1CCN(c2nc(=O)n(-c3c(C)ccnc3C(C)C)c3nc(-c4c(O)cccc4F)c(F)cc23)C(C)C1 (stereo unspecified) + CC(Nc1ccc2c(c1)OCCn1cc(N3C(=O)OCC3C(F)F)nc1-2)C(N)=O has what viability, T/C?
111

Entry CC(C)NCC(C(=O)N1CCN(c2ncnc3c2C(C)CC3O)CC1)c1ccc(Cl)cc1 (stereo unspecified) + CC(Nc1ccc2c(c1)OCCn1cc(N3C(=O)OCC3C(F)F)nc1-2)C(N)=O has what viability, T/C?
18.2

Entry CC1(C)CCC(CN2CCN(c3ccc(C(=O)NS(=O)(=O)c4ccc(NCC5CCOCC5)c([N+](=O)[O-])c4)c(Oc4cnc5[nH]ccc5c4)c3)CC2)=C(c2ccc(Cl)cc2)C1 + CC(Nc1ccc2c(c1)OCCn1cc(N3C(=O)OCC3C(F)F)nc1-2)C(N)=O has what viability, T/C?
24.8

Entry C=CC(=O)N1CCN(c2nc(=O)n(-c3c(C)ccnc3C(C)C)c3nc(-c4c(O)cccc4F)c(F)cc23)C(C)C1 (stereo unspecified) + COc1c(OCCCN2CCOCC2)ccc2c3n(c(=NC(=O)c4cnc(N)nc4)nc12)CCN3 has what viability, T/C?
85
